# target or system: T1, CD5 antigen (Acro, CD5-H52H5) (UniProt P06127 25-371)
# T1 construct: Bought protein
# T1 sequence (looked up): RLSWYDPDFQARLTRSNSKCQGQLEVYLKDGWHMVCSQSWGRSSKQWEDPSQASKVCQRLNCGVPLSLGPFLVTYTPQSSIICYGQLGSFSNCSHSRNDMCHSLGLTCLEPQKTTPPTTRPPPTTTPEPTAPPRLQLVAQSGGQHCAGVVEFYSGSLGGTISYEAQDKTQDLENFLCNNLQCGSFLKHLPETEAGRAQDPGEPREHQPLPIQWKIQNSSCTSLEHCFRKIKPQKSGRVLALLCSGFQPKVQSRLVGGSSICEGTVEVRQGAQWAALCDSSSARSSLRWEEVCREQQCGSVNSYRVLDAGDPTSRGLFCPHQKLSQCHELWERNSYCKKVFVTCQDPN
# test method notes: BLI (Octet), IgG loaded on the biosensor, CD5 antigen 100 to 1.563 nM, 1:1 model
readout type: kon (M⁻¹ s⁻¹)
Field: numeric (M⁻¹ s⁻¹). Do not append units.

Reference set (4 entries):
FHVH4 (#62 IgG) (Fc fusion, also called anti-CD5 IgG; not shown: human IgG4 Fc) QVQLVQSGAEVKKPGESLRISCKASGYSFSNHWIGWVRQKPGKGLEWMGSVYPGDSDTRYSPSFQGHVTVSADKSMNTAYLQWSSLKTSDTAMYYCARGGTIDGDYGGRQDFWGQGTMVTVSS    12500
FHVH3 (#61 IgG) (Fc fusion, also called #61 clone; anti-CD5 IgG; not shown: human IgG4 Fc) QVQLVQSGAEVKKPGSSVKVSCKASGGTFSNYAISWVRQAPGQGLEWMGWISAYNGDTKYAQRLQGRVTMTTDTSTSTAYMELRNLRSDDTAVYYCARYESMSGQDIWGQGTLVTVSS    72800
FHVH1 (#42 IgG) (Fc fusion, also called #42 clone; anti-CD5 IgG; not shown: human IgG4 Fc) EVQLLESGGGLVQPGGSLRLSCAASGFTFSHSAMGWVRQAPGKGLEWVSSIYARGGYTYYADSVKGRFTISRDNSKNTLYLQMNSLRAEDTAVYYCARGYHLEYMVSQDVWGQGTLVTVSS    48000
FHVH3VH1 (#61-42 IgG) (Fc fusion, also called anti-CD5 IgG; not shown: human IgG4 Fc) QVQLVQSGAEVKKPGSSVKVSCKASGGTFSNYAISWVRQAPGQGLEWMGWISAYNGDTKYAQRLQGRVTMTTDTSTSTAYMELRNLRSDDTAVYYCARYESMSGQDIWGQGTLVTVSSGGGGSGGGGSGGGGSEVQLLESGGGLVQPGGSLRLSCAASGFTFSHSAMGWVRQAPGKGLEWVSSIYARGGYTYYADSVKGRFTISRDNSKNTLYLQMNSLRAEDTAVYYCARGYHLEYMVSQDVWGQGTLVTVSS    113000

Continue with the next binder.
Q: Which kon value is on record for FHVH2 (#60 IgG) (Fc fusion, also called anti-CD5 IgG; not shown: human IgG4 Fc) QVQLVESGGGLVQPGGSLRLSCAASGFTFSSYEMNWVRQAPGKGLEWVSYISSSGSTIYYADSVKGRFTISRDNAKNSLYLQMNSLRAEDTAVYYCARVAQREGDVWGKGTTVTVSS ?
Ans: 25500
